experimental_target: KRAS-G12C mutant (Homo sapiens, UniProt P01116, G12C)
Sequence (P01116 1-188 isoform P01116-2 G12C): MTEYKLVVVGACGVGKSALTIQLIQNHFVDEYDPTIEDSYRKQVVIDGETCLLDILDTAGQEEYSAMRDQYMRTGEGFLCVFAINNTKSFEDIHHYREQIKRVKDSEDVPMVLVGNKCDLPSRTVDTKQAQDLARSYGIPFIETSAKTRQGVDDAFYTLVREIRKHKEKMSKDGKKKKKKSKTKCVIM
protocol_text: TR-FRET assay of SOS1-assisted KRAS GDP/GTP exchange
pIC50: −log10 of the molar value.
result_type: pIC50

C=C(F)C(=O)N1CCN(c2nc(OCC34CCCN3CCC4)nc3c2COC(c2cccc4cccc(C)c24)C3)C[C@@H]1CC#N (stereo partly drawn) [Compound 56] ... 7.15

(I) C=CC(=O)N1CCN(c2nc(OC[C@@H]3CCCN3C)nc3c2CO[C@@H](c2cccc4ccccc24)C3)C[C@@H]1CC#N [Compound 5]
(II) C=C(F)C(=O)N1CCN(c2nc(OCC34CCCN3CCC4)nc3c2CO[C@H](c2cccc4cccc(C)c24)C3)C[C@@H]1CC#N (single isomer, unassigned) [Compound 58]
Please state the entry with greater pIC50 among I and II . Give the label under which the chosen entry appears.
II
